Setup conditions: rat, in vivo
Measure: t1/2
// print number alone

Ask | # input molecule: CC(CO)C1=C(O)c2ccc3c(c2C(=O)C1=O)CCCC3(C)C (stereo not drawn) ; wanted: its t1/2
Reply | 7.21

Ask | # input molecule: `COc1cc2c(=O)c(-c3ccc(O)cc3)coc2cc1O[C@@H]1O[C@H](CO)[C@@H](O)[C@H](O)[C@H]1O` ; wanted: its t1/2
Reply | 3.56

Ask | # input molecule: `Cc1cc(O)c2c(c1)C(=O)c1cc(C(=O)O)cc(O)c1C2=O` ; wanted: its t1/2
Reply | 1.98

Ask | # input molecule: `COc1ccc2c(c1OC)O[C@H]1c3ccc(O)cc3OC[C@@H]21` ; wanted: its t1/2
Reply | 4.16

Ask | # input molecule: Cc1cc(O[C@@H]2O[C@H](CO)[C@@H](O)[C@H](O)[C@H]2O)cc2oc(CC(C)O)cc(=O)c12 (stereo partly drawn) ; wanted: its t1/2
Reply | 7.53

Ask | # input molecule: `COc1cccc2c1C(=O)c1c(O)cc(C)cc1C2=O` ; wanted: its t1/2
Reply | 3.38
